# System: Human immunodeficiency virus 1
# Protocol Description: Antiviral activity against Human immunodeficiency virus 1 assessed as inhibition of viral replication
# Assay type: functional, organism-based
Reported Endpoint: IC50 (nM)
Numbers only, in nM.

Your task in this section: give IC50 for each listed record.
1. COc1cc(C[C@H](C)[C@H](C)Cc2cc(OC)c(O[C@@H](C)[C@@H](O)c3ccc(O)c(OC)c3)c(OC)c2)ccc1O
2. COc1cc(C[C@H](C)[C@H](C)Cc2cc(OC)c(O[C@H](C)[C@@H](O)c3ccc(O)c(OC)c3)c(OC)c2)ccc1O

Response given:
1: 2010; 2: 2520
